inhibition for assorted molecules
# measurement target: Hexose transporter 1 (Plasmodium falciparum)
# assay procedure: ST_JUDE_LEISH: Cytotoxicity at 2uM final concentration against transgenic Leishmania Mexicana promastigotes LmPfHT that are glucose transport deficient and complemented with the Plasmodium falciparum hexose transporter. Activity is measured by DNA content using SYBR green in vitro
# Type: functional
Give the value in % but do not write % after it.

# annotated cases, reported inhibition shown
**Q:** Request the reported inhibition associated with Cc1nc2sccn2c1C(=O)NCCc1ccccc1Cl
**A:** 1.15

**Q:** Same for Cc1[nH]c(C)c(-c2ccc(OCc3ccc(F)cc3)nc2)c(=O)c1Br
**A:** 2.42

**Q:** Also Cc1sc(NC(=O)c2ccc([N+](=O)[O-])cc2Cl)c(C(N)=O)c1C ?
**A:** 2.08

---
**Q:** Any idea what inhibition was measured for Fc1ccc(CN2CCN(c3ncnc4cc(-c5ccccc5)sc34)CC2)cc1 ?
**A:** -1.81

**Q:** What about NC(=O)c1cccc(C(=O)Nc2cccc(-c3csc(-c4nc5ccccc5[nH]4)c3)c2)c1 ?
**A:** 2.2

* * *

Entries annotated with measured inhibition
# measurement target: Glucose transporter (Leishmania mexicana) (UniProt O61059)
# assay procedure: ST_JUDE_LEISH: Cytotoxicity at 2uM final concentration against transgenic Leishmania Mexicana promastigotes LmGT2 that are glucose transport deficient and complemented with the L. Mexicana glucose transporter 2. Activity is measured by DNA content using SYBR green in vitro
# Assay type: functional
Report only the number, with the unit % understood.

**Q:** GET /values?readout=inhibition&system=Glucose transporter (Leishmania mexicana) (UniProt O61059)&item= O=C(C=Cc1ccc(Cl)c(Cl)c1)NCCCCCN1CCC(CCNC(=O)/C=C/c2ccccc2)CC1
**A:** 3.1

**Q:** Then what about the molecule O=C(NCCCCCN1CCC(c2c[nH]c3ccccc23)CC1)Nc1ccc(Cl)cc1Cl ?
**A:** 2.92

**Q:** What about CCOC(=O)c1cnc2c(C(F)(F)F)cccc2c1Nc1ccc(O)cc1 ?
**A:** 9.59

**Q:** Field entry: Cc1cccc2nc(-c3cccc(-c4ccc(C(=O)NCCc5ccc(O)c(=O)[nH]5)cc4)c3)[nH]c12
**A:** 2.33

**Q:** Subsequent entry: CC(C)Nc1nc(NCCc2c[nH]cn2)nc(NCc2cccc3ccccc23)n1
**A:** -2.34

**Q:** Thanks! And CN1CCN(CC(=O)Nc2cccc(-c3ccc(-c4nc5cc(C(F)(F)F)ccc5[nH]4)s3)c2)CC1 ?
**A:** 4.37

**Q:** Moving on to Cc1ccccc1Cc1cccc(/N=C(\N)Nc2ccc(Cl)cc2)n1
**A:** 2.51

**Q:** Quick one: c1ccc(COc2ccc(Nc3ncnc4cnc(-c5ccc(CN6CCCCC6)o5)cc34)cc2)cc1
**A:** 2.99

# evaluate next
**Q:** Return inhibition measured with Glucose transporter (Leishmania mexicana) (UniProt O61059) given this molecule: Cc1cc(Nc2ncc(C#N)c(Nc3ccccc3C(N)=O)n2)ccc1N1CCN(C)CC1
**A:** 65.4

* * *

As shown below, each of these compounds has a reported inhibition value.
# measurement target: Glucose transporter (Leishmania mexicana) (UniProt O61059)
# assay procedure: ST_JUDE_LEISH: Cytotoxicity at 2uM final concentration against transgenic Leishmania Mexicana promastigotes LmGT2 that are glucose transport deficient and complemented with the L. Mexicana glucose transporter 2. Activity is measured by DNA content using SYBR green in vitro
# Type: functional
# output: bare number, implied unit %

Examples with their reported inhibition follow.
**Q:** Could you tell me which inhibition is on file for CC(C)(C)NS(=O)(=O)c1cc(C(=O)N2CCC(CCN3CCC(C(=O)c4ccc(F)cc4)CC3)(c3cccc(F)c3)CC2)c(Cl)cc1F ?
**A:** 5.52

**Q:** Also c1ccc2[nH]c(-c3ccc(-c4ccc(CN5CCN(CCN6CCOCC6)CC5)cc4)s3)nc2c1 , if possible.
**A:** 7.67

Proceed to the following item.
**Q:** Endpoint output: inhibition of CC(C)NCC(O)COc1ccc(Cc2ccc(OCC(O)CNC(C)C)cc2)cc1 (centres undefined) . Value?
**A:** -0.55

* * *

Reported values of inhibition for individual entries
# measurement target: Solute carrier family 2, facilitated glucose transporter member 1 (Homo sapiens)
# assay procedure: ST_JUDE_LEISH: Cytotoxicity at 2uM final concentration against transgenic Leishmania Mexicana promastigotes LmGLUT1 that are glucose transport deficient and complemented with the human glucose transporter GLUT1. Activity is measured by DNA content using SYBR green in vitro
# Type: functional

**Q:** Need inhibition of Cc1c(C(=O)Nc2cc(Sc3ccc(F)cc3)cc([N+](=O)[O-])c2)sc2ncn(Cc3cccc(F)c3)c(=O)c12 , thanks.
**A:** 3.77%

**Q:** Lookup O=C(CCc1c[nH]cn1)Nc1cccc(-c2ccc(-c3nc4ccccc4[nH]3)s2)c1
**A:** 2.18%

**Q:** Request: CS(=O)(=O)c1ccc(CCNCc2ccc(-c3ccc(CNC4Cc5ccccc5C4)cc3)nc2)cc1
**A:** -0.55%

**Q:** What do you get for C(=C(c1cccs1)c1cccs1)c1ccc(CNC2CCN(Cc3ccccc3)CC2)cc1 ?
**A:** 4.45%

**Q:** Ok, now O=C(NC1CCN(Cc2cccc(C(F)(F)F)c2)CC1)c1ccc(-c2cccc(Cl)c2)s1
**A:** 3.3%

Continuing:
**Q:** For the compound CCc1cn2c3c(cc(C(=O)N[C@@H](Cc4ccccc4)[C@H](O)CNCc4ccccc4C)cc13)N(C)S(=O)(=O)CC2 , what inhibition is on record?
**A:** 3.43%

**Q:** Now try CCc1ccc(NC(=O)c2ccc(CN3CCCN(Cc4cccc(O)c4)CC3)cc2)cc1 .
**A:** -0.63%

**Q:** Also, N=C(N)Nc1nc(-c2cc(NC(=O)C(F)(F)F)cc([N+](=O)[O-])c2)cs1 please.
**A:** 0.23%

**Q:** Repeat with CCOc1ccc2[nH]c(C)cc(=NN=Cc3cccc(F)c3)c2c1
**A:** -0.81%

* * *

Each entry below carries its recorded inhibition.
# measurement target: Hexose transporter 1 (Plasmodium falciparum)
# assay procedure: ST_JUDE_LEISH: Cytotoxicity at 2uM final concentration against transgenic Leishmania Mexicana promastigotes LmPfHT that are glucose transport deficient and complemented with the Plasmodium falciparum hexose transporter. Activity is measured by DNA content using SYBR green in vitro
# Format: functional
Write the value in % as a bare number.

**Q:** # input molecule: CCNc1cc(C(=O)N[C@@H](Cc2ccccc2)[C@H](O)CN[C@@H]2CCc3ccccc32)cc(N2CCCCS2(=O)=O)c1 ; wanted: its inhibition
**A:** 1.96

**Q:** What do you get for c1cc(CN2CCN(c3ccncc3)CC2)cc(-c2ccc(-c3nc4ccccc4[nH]3)s2)c1 ?
**A:** 2.53

**Q:** For O=C(NC(=O)c1ccccc1O)c1ccccc1O then?
**A:** 0.7

**Q:** How about N#Cc1cccc(NC(=O)Nc2ccc3c(c2)CN(Cc2c[nH]c4ncccc24)C3)c1 ?
**A:** 7.47

More entries:
**Q:** Form field: reported inhibition of COc1ccc2ncc(Cl)c(CCN3CCC(NCc4ccc5c(n4)NC(=O)CO5)CC3)c2c1
**A:** 5.92

* * *

# measurement target: Hexose transporter 1 (Plasmodium falciparum) (UniProt O97467)
# assay procedure: ST_JUDE_LEISH: Cytotoxicity at 2uM final concentration against transgenic Leishmania Mexicana promastigotes LmPfHT that are glucose transport deficient and complemented with the Plasmodium falciparum hexose transporter. Activity is measured by DNA content using SYBR green in vitro
# Type: functional
quantity: inhibition (%)
Respond with the bare value in %.

Worked cases, inhibition given:
**Q:** Give its inhibition value. Item: Clc1ccc(C=NNc2ccnc3cc(Cl)ccc23)cc1
**A:** 0.11

**Q:** What about this molecule? C=CCOc1ccc(C2C(C(=O)OC)=C(C)NC3=C2C(=O)c2ccccc23)cc1OC (centres undefined)
**A:** 4.51

Further cases:
**Q:** inhibition lookup needed for COc1ccc(-c2cccc(NC(=O)c3cccs3)c2)cc1CN1CCCN(C)CC1 , thanks.
**A:** 0.37

**Q:** Cool, now O=C(Nc1ccc(-c2cccc(-c3nc4cc(C(F)(F)F)ccc4[nH]3)c2)cc1)Nc1ccc(Cl)c(Cl)c1
**A:** 7.67

**Q:** Similarly, COc1ccc(CN2CCC(C(=O)Nc3cccc(-c4cccc(Cl)c4)c3)CC2)cc1O ?
**A:** 7.5

**Q:** Request: O=C(/C=C/c1ccc(Cl)c(Cl)c1)NCCCCCCN1CCCN(C(=O)Nc2ccc(F)c(Cl)c2)CC1
**A:** 2.44

**Q:** Try O=C(Nc1cc(C(F)(F)F)cc(C(F)(F)F)c1)Nc1ccc(Cl)c(Cl)c1 next.
**A:** 1.04

**Q:** Request: Cc1ccc(NC(=O)c2ccc(CN3CCCN(Cc4cccc(O)c4)CC3)cc2)cc1
**A:** -0.37

**Q:** Please give the result for Cc1cc(N2CCOCC2)nc(Nc2ccc(NC(=O)c3cccc4ccccc34)cc2)n1 too.
**A:** 8.47

From: ChEMBL document CHEMBL3433997
